# protocol-text: Enthalpy of solution by microreaction calorimetry
# Format: physicochemical
# experimental-setup: 25°C
reported-metric: Molar enthalpy of solution, Phosphate buffer (pH8) ΔsolH (kJ mol^-1)

[[record]]
molecule = "CC(C)c1c(C(=O)Nc2ccccc2)c(-c2ccccc2)c(-c2ccc(F)cc2)n1CC[C@@H](O)C[C@@H](O)CC(=O)[O-].CC(C)c1c(C(=O)Nc2ccccc2)c(-c2ccccc2)c(-c2ccc(F)cc2)n1CC[C@@H](O)C[C@@H](O)CC(=O)[O-].CC(C)c1c(C(=O)Nc2ccccc2)c(-c2ccccc2)c(-c2ccc(F)cc2)n1CC[C@@H](O)C[C@@H](O)CC(=O)[O-].CC(C)c1c(C(=O)Nc2ccccc2)c(-c2ccccc2)c(-c2ccc(F)cc2)n1CC[C@@H](O)C[C@@H](O)CC(=O)[O-].CCO.O.O.[Ca+2].[Ca+2] [Solvate VII]"
units = "kJ mol^-1"
readout_value = 16.98

[[record]]
molecule = "CC(C)c1c(C(=O)Nc2ccccc2)c(-c2ccccc2)c(-c2ccc(F)cc2)n1CC[C@@H](O)C[C@@H](O)CC(=O)[O-].CC(C)c1c(C(=O)Nc2ccccc2)c(-c2ccccc2)c(-c2ccc(F)cc2)n1CC[C@@H](O)C[C@@H](O)CC(=O)[O-].CCO.[Ca+2] [Solvate III]"
units = "kJ mol^-1"
readout_value = 5.46

[[record]]
molecule = "CC(C)(C)O.CC(C)c1c(C(=O)Nc2ccccc2)c(-c2ccccc2)c(-c2ccc(F)cc2)n1CC[C@@H](O)C[C@@H](O)CC(=O)[O-].CC(C)c1c(C(=O)Nc2ccccc2)c(-c2ccccc2)c(-c2ccc(F)cc2)n1CC[C@@H](O)C[C@@H](O)CC(=O)[O-].CC(C)c1c(C(=O)Nc2ccccc2)c(-c2ccccc2)c(-c2ccc(F)cc2)n1CC[C@@H](O)C[C@@H](O)CC(=O)[O-].CC(C)c1c(C(=O)Nc2ccccc2)c(-c2ccccc2)c(-c2ccc(F)cc2)n1CC[C@@H](O)C[C@@H](O)CC(=O)[O-].[Ca+2].[Ca+2] [Solvate IV]"
units = "kJ mol^-1"
readout_value = 11.50

[[record]]
molecule = "C1CCOC1.CC(C)c1c(C(=O)Nc2ccccc2)c(-c2ccccc2)c(-c2ccc(F)cc2)n1CC[C@@H](O)C[C@@H](O)CC(=O)[O-].CC(C)c1c(C(=O)Nc2ccccc2)c(-c2ccccc2)c(-c2ccc(F)cc2)n1CC[C@@H](O)C[C@@H](O)CC(=O)[O-].[Ca+2] [Solvate II]"
units = "kJ mol^-1"
readout_value = 14.31

[[record]]
molecule = "CC(C)c1c(C(=O)Nc2ccccc2)c(-c2ccccc2)c(-c2ccc(F)cc2)n1CC[C@@H](O)C[C@@H](O)CC(=O)O [ATC, Atorvastatin calcium, reference compound]"
units = "kJ mol^-1"
readout_value = 21.89

[[record]]
molecule = "CC(C)O.CC(C)c1c(C(=O)Nc2ccccc2)c(-c2ccccc2)c(-c2ccc(F)cc2)n1CC[C@@H](O)C[C@@H](O)CC(=O)[O-].CC(C)c1c(C(=O)Nc2ccccc2)c(-c2ccccc2)c(-c2ccc(F)cc2)n1CC[C@@H](O)C[C@@H](O)CC(=O)[O-].CC(C)c1c(C(=O)Nc2ccccc2)c(-c2ccccc2)c(-c2ccc(F)cc2)n1CC[C@@H](O)C[C@@H](O)CC(=O)[O-].CC(C)c1c(C(=O)Nc2ccccc2)c(-c2ccccc2)c(-c2ccc(F)cc2)n1CC[C@@H](O)C[C@@H](O)CC(=O)[O-].[Ca+2].[Ca+2] [Solvate I]"
units = "kJ mol^-1"
readout_value = 2.51

[[record]]
molecule = "CC(C)c1c(C(=O)Nc2ccccc2)c(-c2ccccc2)c(-c2ccc(F)cc2)n1CC[C@@H](O)C[C@@H](O)CC(=O)[O-].CC(C)c1c(C(=O)Nc2ccccc2)c(-c2ccccc2)c(-c2ccc(F)cc2)n1CC[C@@H](O)C[C@@H](O)CC(=O)[O-].CO.[Ca+2] [Solvate V]"
units = "kJ mol^-1"
readout_value = 3.85


###

# protocol-text: Enthalpy of solution by microreaction calorimetry
# Format: physicochemical
# experimental-setup: each solvate in its own solvent of solvation, 25°C
reported-metric: Molar enthalpy of solution in its own solvent, Solvates (ΔsolH^2) (kcal/mol)

[[record]]
compound = "CC(C)c1c(C(=O)Nc2ccccc2)c(-c2ccccc2)c(-c2ccc(F)cc2)n1CC[C@@H](O)C[C@@H](O)CC(=O)[O-].CC(C)c1c(C(=O)Nc2ccccc2)c(-c2ccccc2)c(-c2ccc(F)cc2)n1CC[C@@H](O)C[C@@H](O)CC(=O)[O-].CO.[Ca+2] [Solvate V]"
units = "kcal/mol"
readout_value = 0.507


###

Measured Enthalpy of desolvation per mole of solvent (binding energy) of individual entries
# protocol-text: Desolvation of solvates by DSC and TGA
# Assay type: physicochemical
# experimental-setup: equation 1 from DSC desolvation enthalpy and TGA mass loss
reported-metric: Enthalpy of desolvation per mole of solvent (binding energy) (kcal/mol)

[[record]]
compound = "CC(C)=O.CC(C)=O.CC(C)c1c(C(=O)Nc2ccccc2)c(-c2ccccc2)c(-c2ccc(F)cc2)n1CC[C@@H](O)C[C@@H](O)CC(=O)[O-].CC(C)c1c(C(=O)Nc2ccccc2)c(-c2ccccc2)c(-c2ccc(F)cc2)n1CC[C@@H](O)C[C@@H](O)CC(=O)[O-].CC(C)c1c(C(=O)Nc2ccccc2)c(-c2ccccc2)c(-c2ccc(F)cc2)n1CC[C@@H](O)C[C@@H](O)CC(=O)[O-].CC(C)c1c(C(=O)Nc2ccccc2)c(-c2ccccc2)c(-c2ccc(F)cc2)n1CC[C@@H](O)C[C@@H](O)CC(=O)[O-].CCO.[Ca+2].[Ca+2] [Solvate VI]"
readout_value = 15.69

[[record]]
compound = "CC(C)c1c(C(=O)Nc2ccccc2)c(-c2ccccc2)c(-c2ccc(F)cc2)n1CC[C@@H](O)C[C@@H](O)CC(=O)[O-].CC(C)c1c(C(=O)Nc2ccccc2)c(-c2ccccc2)c(-c2ccc(F)cc2)n1CC[C@@H](O)C[C@@H](O)CC(=O)[O-].CCO.[Ca+2] [Solvate III]"
readout_value = 15.14

[[record]]
compound = "CC(C)c1c(C(=O)Nc2ccccc2)c(-c2ccccc2)c(-c2ccc(F)cc2)n1CC[C@@H](O)C[C@@H](O)CC(=O)[O-].CC(C)c1c(C(=O)Nc2ccccc2)c(-c2ccccc2)c(-c2ccc(F)cc2)n1CC[C@@H](O)C[C@@H](O)CC(=O)[O-].CCCCO.[Ca+2] [Solvate VIII]"
readout_value = 14.69

[[record]]
compound = "CC(C)O.CC(C)c1c(C(=O)Nc2ccccc2)c(-c2ccccc2)c(-c2ccc(F)cc2)n1CC[C@@H](O)C[C@@H](O)CC(=O)[O-].CC(C)c1c(C(=O)Nc2ccccc2)c(-c2ccccc2)c(-c2ccc(F)cc2)n1CC[C@@H](O)C[C@@H](O)CC(=O)[O-].CC(C)c1c(C(=O)Nc2ccccc2)c(-c2ccccc2)c(-c2ccc(F)cc2)n1CC[C@@H](O)C[C@@H](O)CC(=O)[O-].CC(C)c1c(C(=O)Nc2ccccc2)c(-c2ccccc2)c(-c2ccc(F)cc2)n1CC[C@@H](O)C[C@@H](O)CC(=O)[O-].[Ca+2].[Ca+2] [Solvate I]"
readout_value = 33.798


###

# protocol-text: Desolvation of solvates by DSC and TGA
# Assay type: physicochemical
# experimental-setup: calculated from enthalpies of solution, heat capacities and enthalpy of vapourization
reported-metric: Enthalpy of desolvation, ΔdesolvH calculated from equation 4 (kcal/mol)

[[record]]
molecule = "CC(C)O.CC(C)c1c(C(=O)Nc2ccccc2)c(-c2ccccc2)c(-c2ccc(F)cc2)n1CC[C@@H](O)C[C@@H](O)CC(=O)[O-].CC(C)c1c(C(=O)Nc2ccccc2)c(-c2ccccc2)c(-c2ccc(F)cc2)n1CC[C@@H](O)C[C@@H](O)CC(=O)[O-].CC(C)c1c(C(=O)Nc2ccccc2)c(-c2ccccc2)c(-c2ccc(F)cc2)n1CC[C@@H](O)C[C@@H](O)CC(=O)[O-].CC(C)c1c(C(=O)Nc2ccccc2)c(-c2ccccc2)c(-c2ccc(F)cc2)n1CC[C@@H](O)C[C@@H](O)CC(=O)[O-].[Ca+2].[Ca+2] [Solvate I]"
readout_value = 6.197

[[record]]
molecule = "CC(C)=O.CC(C)=O.CC(C)c1c(C(=O)Nc2ccccc2)c(-c2ccccc2)c(-c2ccc(F)cc2)n1CC[C@@H](O)C[C@@H](O)CC(=O)[O-].CC(C)c1c(C(=O)Nc2ccccc2)c(-c2ccccc2)c(-c2ccc(F)cc2)n1CC[C@@H](O)C[C@@H](O)CC(=O)[O-].CC(C)c1c(C(=O)Nc2ccccc2)c(-c2ccccc2)c(-c2ccc(F)cc2)n1CC[C@@H](O)C[C@@H](O)CC(=O)[O-].CC(C)c1c(C(=O)Nc2ccccc2)c(-c2ccccc2)c(-c2ccc(F)cc2)n1CC[C@@H](O)C[C@@H](O)CC(=O)[O-].CCO.[Ca+2].[Ca+2] [Solvate VI]"
readout_value = 12.43


###

# protocol-text: Desolvation of solvates by DSC and TGA
# Type: physicochemical
# experimental-setup: equation 1 from DSC desolvation enthalpy and TGA mass loss
reported-metric: Enthalpy of desolvation per mole of solvent (binding energy) (kJ/mol)

[[record]]
compound = "CC(C)c1c(C(=O)Nc2ccccc2)c(-c2ccccc2)c(-c2ccc(F)cc2)n1CC[C@@H](O)C[C@@H](O)CC(=O)[O-].CC(C)c1c(C(=O)Nc2ccccc2)c(-c2ccccc2)c(-c2ccc(F)cc2)n1CC[C@@H](O)C[C@@H](O)CC(=O)[O-].CO.[Ca+2] [Solvate V]"
units = "kJ/mol"
readout_value = 54.90

[[record]]
compound = "CC(C)(C)O.CC(C)c1c(C(=O)Nc2ccccc2)c(-c2ccccc2)c(-c2ccc(F)cc2)n1CC[C@@H](O)C[C@@H](O)CC(=O)[O-].CC(C)c1c(C(=O)Nc2ccccc2)c(-c2ccccc2)c(-c2ccc(F)cc2)n1CC[C@@H](O)C[C@@H](O)CC(=O)[O-].CC(C)c1c(C(=O)Nc2ccccc2)c(-c2ccccc2)c(-c2ccc(F)cc2)n1CC[C@@H](O)C[C@@H](O)CC(=O)[O-].CC(C)c1c(C(=O)Nc2ccccc2)c(-c2ccccc2)c(-c2ccc(F)cc2)n1CC[C@@H](O)C[C@@H](O)CC(=O)[O-].[Ca+2].[Ca+2] [Solvate IV]"
units = "kJ/mol"
readout_value = 136.63

[[record]]
compound = "C1CCOC1.CC(C)c1c(C(=O)Nc2ccccc2)c(-c2ccccc2)c(-c2ccc(F)cc2)n1CC[C@@H](O)C[C@@H](O)CC(=O)[O-].CC(C)c1c(C(=O)Nc2ccccc2)c(-c2ccccc2)c(-c2ccc(F)cc2)n1CC[C@@H](O)C[C@@H](O)CC(=O)[O-].[Ca+2] [Solvate II]"
units = "kJ/mol"
readout_value = 55.17

